The reported numbers originate from patent US20240408169A1.

target_entity: CyclinE1/CDK2 (Homo sapiens, UniProt P24864)
Construct: purchased Eurofins, discovery 14-475
experiment: Fluorescence Polarization (FP) competitive binding assay, Cyclin E1/Cdk2;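 note: readings taken after two-hour equilibration at room temperature in HEPES buffer with NaCl, DTT, NP-40 and BSA, IC50 fitted from eight-concentration serial dilution series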
measurement_context: 10 nM Cyclin E1/Cdk2, 2 nM FAM probe; average of 2-3 independent experiments; read-out: Cyclin E FP IC50
pIC50: −log10 of the molar value. *1 amine or outer side, *2 acyl side, *3 side chain or, on linkers, in order; H or OH if unused. Where a SMILES comes first, the peptide text is derived from it. Bridges are numbered along the chain shown (N, C = ends). [ ]: non-standard residue; d: D form. The star is where a group is joined. X110 = CC(C)C(=O)N1[C@H]2CC[C@@H]1C=C(c1ccc(Cl)cc1C[C@@H](C(=O)[*:2])N(C)[*:1])C2; X72 = CN([C@@H](Cc1cc(Cl)ccc1-c1cnn(C2CCS(=O)(=O)C2)c1)C(=O)[*:2])[*:1]; X114 = CN([C@@H](Cc1cc(Cl)ccc1-c1ccc(OCCN2CCOCC2)cc1)C(=O)[*:2])[*:1]; X23 = CCN([C@@H](Cc1cc(Cl)ccc1-c1ccc(N2CCN(C)CC2)cc1)C(=O)[*:2])[*:1]; X142 = CN([C@@H](Cc1cc(Cl)ccc1C1=CCN(S(C)(=O)=O)CC1)C(=O)[*:2])[*:1]; X55 = CN([C@@H](Cc1cc(Cl)ccc1-c1cnn(CCN2CCOCC2)c1)C(=O)[*:2])[*:1]; NMehhhLys(Me) = CN([C@@H](CCCCCCCN(C)[*:3])C(=O)[*:2])[*:1]; X117 = Cc1cc(-c2ccc(F)cc2C[C@@H](C(=O)[*:2])N(C)[*:1])cnn1; X204 = CN([C@@H](Cc1cc(F)ccc1-c1ccnnc1)C(=O)[*:2])[*:1]; NMe(hhhLys) = CN([C@@H](CCCCCCCN[*:3])C(=O)[*:2])[*:1]; cBuCO(3,3-F2-1-CF3) = O=C(C1(C(F)(F)F)CC(F)(F)C1)*; Pro(trans-4-F) = O=C(O)[C@@H]1C[C@@H](F)CN1; Gly(cPr) = N[C@H](C(=O)O)C1CC1
Returns fulfilled if the recorded pIC50 is greater than or equal to 6, and not fulfilled otherwise.

Below, 8 molecules whose answers are already recorded.
# molecule, category
rows = [
    ("CC(C)C[C@@H]1NC(=O)[C@@H](N(C)C(=O)[C@@H](NC(=O)[C@@H]2C[C@@H](F)CN2C(=O)C2(C(F)(F)F)CC(F)(F)C2)C2CC2)CCCCCCCN(C)C(=O)[C@H](Cc2cc(Cl)ccc2-c2cnn(CCN3CCOCC3)c2)N(C)C1=O [Example 256] ({cBuCO(3,3-F2-1-CF3)}-[Pro(trans-4-F)][Gly(cPr)][NMehhhLys(Me)]L[X55]; lactam 3-C)", "fulfilled"),
    ("CCN1C(=O)[C@H](CC(C)C)NC(=O)[C@@H](N(C)C(=O)[C@@H](NC(=O)[C@@H]2C[C@@H](F)CN2C(=O)C2(C(F)(F)F)CC(F)(F)C2)C2CC2)CCCCCCCN(C)C(=O)[C@@H]1Cc1cc(Cl)ccc1-c1ccc(N2CCN(C)CC2)cc1 [Example 405] ({cBuCO(3,3-F2-1-CF3)}-[Pro(trans-4-F)][Gly(cPr)][NMehhhLys(Me)]L[X23]; lactam 3-C)", "not fulfilled"),
    ("CC(C)C[C@@H]1NC(=O)[C@@H](N(C)C(=O)[C@@H](NC(=O)[C@@H]2C[C@@H](F)CN2C(=O)C2(C(F)(F)F)CC(F)(F)C2)C2CC2)CCCCCCCNC(=O)[C@H](Cc2cc(F)ccc2-c2ccnnc2)N(C)C1=O [Example 290] ({cBuCO(3,3-F2-1-CF3)}-[Pro(trans-4-F)][Gly(cPr)][NMe(hhhLys)]L[X204]; lactam 3-C)", "not fulfilled"),
    ("CC(C)C[C@@H]1NC(=O)[C@@H](N(C)C(=O)[C@@H](NC(=O)[C@@H]2C[C@@H](F)CN2C(=O)C2(C(F)(F)F)CC(F)(F)C2)C2CC2)CCCCCCCN(C)C(=O)[C@H](Cc2cc(Cl)ccc2-c2cnn(C3CCS(=O)(=O)C3)c2)N(C)C1=O (stereo partly drawn) [Example 253] ({cBuCO(3,3-F2-1-CF3)}-[Pro(trans-4-F)][Gly(cPr)][NMehhhLys(Me)]L[X72]; lactam 3-C)", "fulfilled"),
    ("CC(=O)N1CC=C(c2ccc(Cl)cc2C[C@H]2C(=O)NCCCC=CCC[C@H](N(C)C(=O)[C@@H](NC(=O)[C@@H]3C[C@@H](F)CN3C(=O)C3(C(F)(F)F)CC(F)(F)C3)C3CC3)C(=O)N[C@@H](CC(C)C)C(=O)N2C)CC1 [Example 267]", "not fulfilled"),
    ("CC(C)C[C@@H]1NC(=O)[C@@H](N(C)C(=O)[C@@H](NC(=O)[C@@H]2C[C@@H](F)CN2C(=O)C2(C(F)(F)F)CC(F)(F)C2)C2CC2)CCCCCCCNC(=O)[C@H](Cc2cc(Cl)ccc2C2=CCN(S(C)(=O)=O)CC2)N(C)C1=O [Example 284] ({cBuCO(3,3-F2-1-CF3)}-[Pro(trans-4-F)][Gly(cPr)][NMe(hhhLys)]L[X142]; lactam 3-C)", "not fulfilled"),
    ("CC(C)C[C@@H]1NC(=O)[C@@H](N(C)C(=O)[C@@H](NC(=O)[C@@H]2C[C@@H](F)CN2C(=O)C2(C(F)(F)F)CC(F)(F)C2)C2CC2)CCCCCCCN(C)C(=O)[C@H](Cc2cc(Cl)ccc2-c2ccc(OCCN3CCOCC3)cc2)N(C)C1=O [Example 339] ({cBuCO(3,3-F2-1-CF3)}-[Pro(trans-4-F)][Gly(cPr)][NMehhhLys(Me)]L[X114]; lactam 3-C)", "fulfilled"),
    ("CC(C)C[C@@H]1NC(=O)[C@@H](N(C)C(=O)[C@@H](NC(=O)[C@@H]2C[C@@H](F)CN2C(=O)C2(C(F)(F)F)CC(F)(F)C2)C2CC2)CCCCCCCNC(=O)[C@H](Cc2cc(Cl)ccc2C2=C[C@H]3CC[C@@H](C2)N3C(=O)C(C)C)N(C)C1=O [Example 313] ({cBuCO(3,3-F2-1-CF3)}-[Pro(trans-4-F)][Gly(cPr)][NMe(hhhLys)]L[X110]; lactam 3-C)", "fulfilled"),
]

Reported pIC50 at or above 6? Cc1cc(-c2ccc(F)cc2C[C@H]2C(=O)N(C)CCCCCCC[C@H](N(C)C(=O)[C@@H](NC(=O)[C@@H]3C[C@@H](F)CN3C(=O)C3(C(F)(F)F)CC(F)(F)C3)C3CC3)C(=O)N[C@@H](CC(C)C)C(=O)N2C)cnn1 [Example 293] ({cBuCO(3,3-F2-1-CF3)}-[Pro(trans-4-F)][Gly(cPr)][NMehhhLys(Me)]L[X117]; lactam 3-C) not fulfilled

Reported pIC50 at or above 6? CC[C@H](NC(=O)C1(C(F)(F)F)CC1)C(=O)N[C@@H](C)C(=O)N[C@H]1CC=CCCCCNC(=O)[C@H](Cc2cc(Cl)ccc2Cl)N(C)C(=O)[C@H](CC(C)C)NC1=O [Example 1] fulfilled
